Biological target: Progesterone receptor (Bos taurus, UniProt Q690N0)
Sequence (Q690N0 whole entry): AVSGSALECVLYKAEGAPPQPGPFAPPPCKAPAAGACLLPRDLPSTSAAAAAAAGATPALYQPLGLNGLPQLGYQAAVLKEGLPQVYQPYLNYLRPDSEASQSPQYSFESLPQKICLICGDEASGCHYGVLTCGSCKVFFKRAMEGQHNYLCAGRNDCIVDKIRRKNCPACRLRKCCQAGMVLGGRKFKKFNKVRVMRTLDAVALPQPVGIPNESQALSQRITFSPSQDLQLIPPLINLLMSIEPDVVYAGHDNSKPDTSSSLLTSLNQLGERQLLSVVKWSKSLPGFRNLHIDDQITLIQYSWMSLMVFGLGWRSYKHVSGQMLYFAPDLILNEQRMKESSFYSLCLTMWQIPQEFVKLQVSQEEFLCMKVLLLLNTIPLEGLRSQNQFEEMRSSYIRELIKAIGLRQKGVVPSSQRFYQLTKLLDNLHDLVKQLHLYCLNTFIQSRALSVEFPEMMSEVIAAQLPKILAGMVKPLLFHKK
Experiment: DRUGMATRIX: Progesterone radioligand binding (ligand: [3H] R-5020)
Format: tissue-based, Uterus
Conditions: Not Active = under 50% inhibition at 10 µM
Readout: IC50

Solved cases below.
{"Compound": "C=C(CC)C(=O)c1ccc(OCC(=O)O)c(Cl)c1Cl [ETHACRYNIC ACID]", "Readout": "IC50", "Assay value": "Not Active"}
{"Compound": "CC[C@@H](CO)NC(=O)[C@@H]1C=C2c3cccc4c3c(cn4C)C[C@H]2N(C)C1 [METHYSERGIDE]", "Readout": "IC50", "Assay value": "Not Active"}
{"Compound": "C=C1/C(=C\\C=C2/CCC[C@]3(C)[C@@H]([C@H](C)CCCC(C)C)CC[C@@H]23)C[C@@H](O)C[C@@H]1O [ALFACALCIDOL]", "Readout": "IC50", "Assay value": "Not Active"}
{"Compound": "CO[C@H]1C[C@@H]2CC[C@@H](C)[C@@](O)(O2)C(=O)C(=O)N2CCCC[C@H]2C(=O)O[C@H]([C@H](C)C[C@@H]2CC[C@@H](O)[C@H](OC)C2)CC(=O)[C@H](C)/C=C(\\C)[C@@H](O)[C@@H](OC)C(=O)[C@H](C)C[C@H](C)/C=C/C=C/C=C/1C [SIROLIMUS]", "Readout": "IC50", "Assay value": "Not Active"}
{"Compound": "CCOC(=O)[C@H](CCc1ccccc1)N[C@@H](C)C(=O)N1Cc2ccccc2C[C@H]1C(=O)O", "Readout": "IC50", "Assay value": "Not Active"}

Moving on to another compound below.
*Q* # get_value(readout='IC50', item= CCS(=O)(=O)CCn1c([N+](=O)[O-])cnc1C [TINIDAZOLE] )
*A* Not Active
